The following molecules were reported with IC50 values on Tyrosine-protein kinase JAK2 (Homo sapiens, UniProt O60674) in different studies.

Some solved cases for reference:
{"Molecule": "C#CCCNc1nc(Nc2ccc3c(c2)NC[C@H](O)CO3)ncc1C(N)=O", "Readout value": "10 to 100 nM"}
{"Molecule": "CCn1cc(Nc2nc(-c3cnn(C4(CC#N)CN(S(=O)(=O)CC)C4)c3)c3sccc3n2)cn1", "Readout value": "< 50 nM"}
{"Molecule": "O=C1NCCCCOCc2cc(ccc2Oc2cccc(F)c2)Nc2nccc(n2)-c2ccc1cc2[N+](=O)[O-]", "Readout value": "1000 to 10000 nM"}
{"Molecule": "Cc1noc(-c2cnc3[nH]ccc3c2N[C@@H]2CCCN(C(=O)CC#N)C2)n1", "Readout value": "10 to 100 nM"}
{"Molecule": "Cn1cc(-c2cc3ncc(Cl)n3c(-c3cnn(C(CC#N)C4CC4)c3)n2)cn1 (centres unmarked)", "Readout value": "10 to 100 nM"}

Query: Please indicate recorded IC50 of `N#CC1CN(S(=O)(=O)C[C@H]2C[C@@H](n3cnc4cnc5[nH]ccc5c43)C2)C1` measured with Tyrosine-protein kinase JAK2 (Homo sapiens, UniProt O60674).
Result: 170 nM

Query: Please indicate recorded IC50 of `COc1cc(F)cc(F)c1COc1ccc2cc1COCC[C@H](C)CNC(=O)c1ccc(c(N)c1)-c1ccnc(n1)N2` measured with Tyrosine-protein kinase JAK2 (Homo sapiens, UniProt O60674).
Result: 1000 to 10000 nM

Query: Please indicate recorded IC50 of `CCC(=O)c1cnc(Nc2ccc(CN)nn2)cc1Nc1cccc(-c2ncn(C)n2)c1OC` measured with Tyrosine-protein kinase JAK2 (Homo sapiens, UniProt O60674).
Result: ≥ 500 nM

###

pIC50: −log10 of the molar value.
The following compounds were reported with pIC50 values on Tyrosine-protein kinase JAK2 (Homo sapiens) in different studies.

Some solved cases for reference:
{"Compound": "N#CCC1(n2cc(-c3c(C#N)cnc4[nH]ccc34)cn2)CN(C2CCN(C(=O)c3cc(Br)cc(Br)c3)CC2)C1", "Readout value": "≥ 8.00"}
{"Compound": "CCC(=O)c1cnc(Nc2ccc(C(=O)NC)cn2)cc1Nc1cccc(-c2ncn(C)n2)c1OC", "Readout value": "≤ 6.30"}
{"Compound": "N#Cc1ccccc1S(=O)(=O)n1ccc2cnc(Nc3ccc(N4CCNCC4)cc3)cc21", "Readout value": "> 7.70"}

Query: Please indicate recorded pIC50 of N#CCC(C1CCCC1)n1cc(-c2ccnc(Nc3ccc(NS(=O)(=O)c4ccc(Cl)s4)cc3)n2)cn1 (racemic) measured with Tyrosine-protein kinase JAK2 (Homo sapiens).
Result: > 7.00

Query: Please indicate recorded pIC50 of `Cc1cnc2nc1NCCCCCNC(=O)c1ccc(cc1C(=O)NCc1ccccc1)-c1cnc(F)c(c1)N2` measured with Tyrosine-protein kinase JAK2 (Homo sapiens).
Result: 5.00 to 6.00

Query: Please indicate recorded pIC50 of `CN(c1ncnc2[nH]ccc12)N1CCC(C(=O)NCC(F)(F)F)CC1` measured with Tyrosine-protein kinase JAK2 (Homo sapiens).
Result: 6.00 to 7.00

Query: Please indicate recorded pIC50 of `CCC(CC)n1cc(-c2nc(-c3cnn(C4CN(C(=O)CO)C4)c3)cn3nccc23)cn1` measured with Tyrosine-protein kinase JAK2 (Homo sapiens).
Result: 7.00 to 8.00
